tested_target: T1, neuropeptide Y5 receptor (Homo sapiens (Human)), Q15761
T1 chain: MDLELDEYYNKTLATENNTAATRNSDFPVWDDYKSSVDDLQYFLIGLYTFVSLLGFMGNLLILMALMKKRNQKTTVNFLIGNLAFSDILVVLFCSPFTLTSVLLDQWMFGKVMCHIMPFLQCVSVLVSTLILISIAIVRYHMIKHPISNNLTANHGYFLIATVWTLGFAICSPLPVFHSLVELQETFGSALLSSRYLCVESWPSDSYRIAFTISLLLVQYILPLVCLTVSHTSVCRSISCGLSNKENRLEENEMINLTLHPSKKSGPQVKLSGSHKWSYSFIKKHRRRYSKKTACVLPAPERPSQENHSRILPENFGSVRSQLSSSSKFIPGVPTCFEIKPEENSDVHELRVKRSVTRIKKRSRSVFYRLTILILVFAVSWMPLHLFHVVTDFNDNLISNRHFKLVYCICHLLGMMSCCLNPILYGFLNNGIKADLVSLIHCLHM
measurement_notes: radioligand competition, [125I]-hPYY, Y5/CHO-K1 membranes
reported_property: Y5RBA (nM)

{"binder": "YPIKPEAPGEDASPEELAQYAAELRRYIQMLTRQRY (modifications not checked) [SEQ ID NO 347]", "reported_property": "Y5RBA", "experimental_result": 51}

a: IKPEAPGEDASPEELAQYAADLRRYINMLTRPRY (modifications not checked) [SEQ ID NO 310]
b: YPIKPEAPGEDASPEELNQYAASLRRYINMLTRQRY (modifications not checked) [SEQ ID NO 317]
// select label with min value of measured Y5RBA from [ a , b ] Pick one and reply with its label. b
